Test system: NCI-H23 lung
Assay: NCI-60 one-dose screen, 48 h (100 = growth as untreated, 0 = no growth, -100 = all killed)
Conditions: 10 µM unless noted
Compounds without any hit were thinned out: in the full panel of roughly 83,000, 20% have a hit.
experimental.readout: growth (%)

compound=CN1CCN(C(=O)CCN(C(=O)Oc2cc3c(c4ccccc24)[C@H](CCl)CN3C(=O)c2cc3cc(OCCCN4CCC4)ccc3[nH]2)[C@H]2CCSSC2)CC1 experimental_readout=growth result_value=-73.3
compound=Cn1cc(-c2cc(N)n3nc(-c4c[nH]c5ccc(Cl)cc45)cc3n2)c2cc(Br)cnc21 experimental_readout=growth result_value=-58.6
compound=COc1ccc(NC(=O)N/N=C/c2c[nH]c3ccccc23)cc1 experimental_readout=growth result_value=40
compound=Clc1ccccc1Nc1nnc(-c2c[nH]c3ccccc23)o1 experimental_readout=growth result_value=22.2
compound=c1ccc(CSc2nnc(-c3ccc4nc(-c5ccccc5)[nH]c4c3)o2)cc1 experimental_readout=growth result_value=68
compound=CCCCNC(=S)Nc1ccc(OCc2nc3ccc(Cl)cc3[nH]2)cc1 experimental_readout=growth result_value=29.3
compound=CC(C)C[C@H](NC(=O)CNC(=O)C[C@H]1O[C@@H]2OC3(C)CC[C@H]4[C@H](C)CC[C@@H]([C@H]1C)[C@@]24O3)B(O)O experimental_readout=growth result_value=-37.1
compound=Cc1oc(-c2ccccc2)nc1CN[C@@H]1C[C@@H]2C[C@H]([C@H]1C)C2(C)C experimental_readout=growth result_value=-30
compound=CCCCCCCCc1ccc(C(=O)Nc2ccc(C)c(OP(=O)(O)O)c2)cc1 experimental_readout=growth result_value=101
compound=CS(=O)(=O)c1ccc(-n2nc(C(=O)NCc3ccccc3)cc2-c2ccc(Cl)cc2)cc1 experimental_readout=growth result_value=89.9
compound=Cc1ccc(Nc2nnc(-c3c[nH]c4ccccc34)o2)c(C)c1 experimental_readout=growth result_value=16.2
compound=COc1ccc(/C=C/c2nc3ccccc3n3c(-c4cccc([N+](=O)[O-])c4)nnc23)cc1 experimental_readout=growth result_value=-78.1
compound=O=C(N/N=C/c1ccc(B(O)O)s1)c1[nH]c2ccc(Br)cc2c1-c1ccccc1 experimental_readout=growth result_value=-94.9
compound=Cc1nc2sccn2c1-c1nnc(SCC(C)C)o1 experimental_readout=growth result_value=85.9
compound=O=C(CSc1nnc(-c2ccc(-c3nc4ccc(Cl)cc4[nH]3)cc2)o1)Nc1ccc(Cl)cc1 experimental_readout=growth result_value=-11.9
compound="Fc1ccccc1CNc1nc(SCCN2CCOCC2)nc2c1cnn2CC(Cl)c1ccc(Br)cc1 (centres undefined)" experimental_readout=growth result_value=45.1
compound=COc1ccc(-c2nnc3c(/C=C/c4ccc(Br)cc4)nc4ccccc4n23)cc1 experimental_readout=growth result_value=29.9
compound=COc1ccc(N=Nc2c(N)nn3c(-c4ccc5c(c4)C=S=C5)ccnc23)cc1 experimental_readout=growth result_value=27
compound=COc1ccc2[nH]cc(-c3cc4nc(-c5cn(C)c6ncccc56)cc(N)n4n3)c2c1 experimental_readout=growth result_value=13.9

---

Tested on: SNB-19 CNS
Test: NCI-60 one-dose screen, 48 h (100 = growth as untreated, 0 = no growth, -100 = all killed)
Conditions: 10 µM unless noted
The panel holds about 83,000 compounds, 20% with a hit somewhere; the sample as a whole holds those more often.
experimental.readout: growth (%)

sample_smiles=COc1cccc2nc(Nc3cccc(NC(=O)c4ccc(CN5CCN(C)CC5)c(C(F)(F)F)c4)c3)ccc12 target_entity="SNB-19 CNS" experimental_readout=growth result_value=-100
sample_smiles=Cc1ccc(NC(=O)N/N=C/c2c[nH]c3ccccc23)c(C)c1 target_entity="SNB-19 CNS" experimental_readout=growth result_value=34.7
sample_smiles=Cn1ncc2c(N)nc(Oc3ccccc3-c3ccccc3)nc21 target_entity="SNB-19 CNS" experimental_readout=growth result_value=33.8
sample_smiles=NCCCCn1c(SCCc2c[nH]c3ccccc23)nnc1-c1ccc2ccccc2n1 target_entity="SNB-19 CNS" experimental_readout=growth result_value=18.6
sample_smiles=O=C(CSc1nc2c(c(=O)[nH]1)CCCC2)Nc1ccccc1C(=O)O target_entity="SNB-19 CNS" experimental_readout=growth result_value=99.7
sample_smiles=O=C(NC(=S)N1CCN(c2ncnc3c2cnn3-c2ccccc2)CC1)c1ccc(F)cc1 target_entity="SNB-19 CNS" experimental_readout=growth result_value=84.9
sample_smiles=CC[C@]12C=CCN3CC[C@@]4(c5ccc(OC)cc5N(C)[C@H]4[C@@](O)(C(=O)OC)[C@@H]1OC(=O)CCCC[P+](c1ccc(F)cc1)(c1ccc(F)cc1)c1ccc(F)cc1)[C@@H]32 target_entity="SNB-19 CNS" experimental_readout=growth result_value=6.61
sample_smiles=COC(=O)CSC1=C(C)C(=O)C(OC)=C(OC)C1=O target_entity="SNB-19 CNS" experimental_readout=growth result_value=90.3
sample_smiles=FC(F)(F)c1cc2c(Cl)ncnc2n1CCC1CCOCC1 target_entity="SNB-19 CNS" experimental_readout=growth result_value=-99
sample_smiles=Clc1ccc(-c2nc3ccc(-c4nnc(SCc5ccccc5)o4)cc3[nH]2)cc1 target_entity="SNB-19 CNS" experimental_readout=growth result_value=27

---

System: SR leukemia
Assay: NCI-60 one-dose screen, 48 h
Conditions: 10 µM unless noted
Description: Growth inhibition of the SR human tumor cell line is measured as a screen for anti-cancer activity. Cells are grown in 96 well plates and exposed to the test compound for 48 hours. Compounds are tested at a single concentration, which is 10^-5 M for most compounds. The reported endpoint is percent growth (GI% or GIPRCNT), where numbers from 0 - 100% represent growth inhibition, and numbers from -100% - 0 represent cell death. For example, a value of 40 represents 60% growth inhibition. […]
The panel holds about 83,000 compounds, 20% with a hit somewhere; the sample as a whole holds those more often. Calls of active or inactive are those of the source. The calls were made as follows: active = growth percent below 10; inactive = the rest.
Classes used: T = active, F = inactive

molecule=N/C(=N\c1nc2ccccc2s1)NC(=O)Nc1ccccc1[N+](=O)[O-] target_entity="SR leukemia" class_label=F
molecule=COc1ccc(N=Nc2c(N)nn3c(-c4ccc5c(c4)C=S=C5)ccnc23)cc1 target_entity="SR leukemia" class_label=F
molecule=CCCCCCCCc1ccc(C(=O)Nc2ccc(C)cc2C(=O)O)cc1 target_entity="SR leukemia" class_label=F
molecule="Cc1ccc(C2CC(c3ccc(NC(=O)Nc4ccccc4)cc3)=NN2c2ccc(S(C)(=O)=O)cc2)cc1 (stereo not given)" target_entity="SR leukemia" class_label=F
molecule=O=C(N/N=C/c1c[nH]c2ccccc12)Nc1ccccc1Cl target_entity="SR leukemia" class_label=T
molecule=COC(=O)c1cc(C(=O)C(C)(C)C)n2c3ccccc3c3ccccc3c12 target_entity="SR leukemia" class_label=F
molecule=CCCn1c(NC(=O)c2cccc(C(N)=O)c2)nc2cc(CN3CCCCC3)ccc21 target_entity="SR leukemia" class_label=F
molecule=Cc1oc(-c2ccccc2)nc1CN[C@@H]1C[C@@H]2C[C@H]([C@H]1C)C2(C)C target_entity="SR leukemia" class_label=T
molecule=CCCCCCCCc1cccc(CC(=O)Nc2ccc(C)cc2C(=O)O)c1 target_entity="SR leukemia" class_label=F
molecule=C[C@H]1[C@@H](CC(=O)N[C@@H](Cc2coc3ccccc23)B(O)O)O[C@@H]2OC3(C)CC[C@H]4[C@H](C)CC[C@@H]1[C@@]24O3 target_entity="SR leukemia" class_label=F

---

Tested on: CCRF-CEM leukemia
Experiment: NCI-60 one-dose screen, 48 h (100 = growth as untreated, 0 = no growth, -100 = all killed)
Conditions: 10 µM unless noted
The panel holds about 83,000 compounds, 20% with a hit somewhere; the sample as a whole holds those more often.
experimental.readout: growth (%)

sample_smiles=COc1ccc2[nH]c(O)c(N=NC(=O)c3ccc4nc(-c5ccc(Cl)cc5)[nH]c4c3)c2c1 experimental_readout=growth reading_unit=% result_value=25.7
sample_smiles=COc1ccc(C(=O)/C=C/c2ccc3c(c2)OCCO3)cc1S(N)(=O)=O experimental_readout=growth reading_unit=% result_value=91
sample_smiles=Cc1ccc(-c2cc(-c3ccccc3)[nH]c(=O)c2C#N)cc1 experimental_readout=growth reading_unit=% result_value=76.7
sample_smiles=COc1ccc(-c2cc(C)nc3[nH]c(=O)sc23)cc1 experimental_readout=growth reading_unit=% result_value=81.5
sample_smiles=Cc1ccc(Cl)cc1NC(=O)N/C(N)=N/c1nc2ccccc2s1 experimental_readout=growth reading_unit=% result_value=-6.91

---

Tested on: HOP-92 NSCLC
Assay: NCI-60 one-dose screen, 48 h
Details: 10 µM unless noted
The panel holds about 83,000 compounds, 20% with a hit somewhere; the sample as a whole holds those more often. Activity calls are given as the source filed them. The calls were made as follows: active = growth percent below 10; inactive = the rest.
Classes used: active, inactive

molecule=Cn1cc(-c2cc3nc(-c4cn(C)c5ncccc45)cc(N)n3n2)c2cc(F)ccc21 target_entity="HOP-92 NSCLC" class_label=active
molecule=COc1cc(NC(=O)CSc2nnc(-c3ccc(-c4nc5ccc(Cl)cc5[nH]4)cc3)o2)cc(OC)c1OC target_entity="HOP-92 NSCLC" class_label=inactive
molecule=Nc1cc(-c2c[nH]c3ccc(F)cc23)nc2cc(-c3c[nH]c4ccccc34)nn12 target_entity="HOP-92 NSCLC" class_label=active
molecule=COc1ccc(OC)c(Cn2cc(C#N)c(N)c2C(=O)c2ccc(Br)cc2)c1 target_entity="HOP-92 NSCLC" class_label=inactive
molecule=Cc1cc(N=C(N)c2ccccc2)ccc1OCCCCCCCCn1ccnc1 target_entity="HOP-92 NSCLC" class_label=inactive
molecule=C[C@@H]1CN(c2ccc3ncc(C#Cc4cncc(C(=O)Nc5ccc(CN6CCN(C)CC6)c(C(F)(F)F)c5)c4)n3n2)C[C@@H](C)O1 target_entity="HOP-92 NSCLC" class_label=active
molecule="O=C(c1ccc(Cl)cc1)C1[C@H](c2ccccc2Cl)[C@@H](c2ccccc2)NC12C(=O)Nc1ccc(Cl)cc12 (stereo partly specified)" target_entity="HOP-92 NSCLC" class_label=active
molecule=C[C@H]1[C@@H](CC(=O)N[C@@H](Cc2coc3ccccc23)B(O)O)O[C@@H]2OC3(C)CC[C@H]4[C@H](C)CC[C@@H]1[C@@]24O3 target_entity="HOP-92 NSCLC" class_label=inactive
molecule="COc1ccc2c(c1)C(Sc1ccc(Cl)cc1)c1c(nc(N)c(C#N)c1N)O2 (stereo unspecified)" target_entity="HOP-92 NSCLC" class_label=inactive
molecule="Oc1ccc(F)c(Nc2nc(SCCN3CCOCC3)nc3c2cnn3CC(Cl)c2ccc(Br)cc2)c1 (stereo unspecified)" target_entity="HOP-92 NSCLC" class_label=active
molecule=Cc1ccc(N=Nc2c(N)nn3c(-c4cc5cc(Br)ccc5oc4=O)ccnc23)cc1 target_entity="HOP-92 NSCLC" class_label=inactive
molecule=O=C(CSc1nc2c(c(=O)[nH]1)CCCC2)Nc1ccccc1C(=O)O target_entity="HOP-92 NSCLC" class_label=inactive
molecule=O=c1[nH]c2ccccc2cc1COc1ccc(Nc2nccc(-c3ccc(Cl)cc3)n2)cc1 target_entity="HOP-92 NSCLC" class_label=inactive
molecule=COc1ccccc1/C=C/c1cccc(NC(=S)NCCCCN(C)C)c1 target_entity="HOP-92 NSCLC" class_label=active
molecule=COc1ccc(-c2cc(C(=O)OCc3ccc(Br)cc3)nn2-c2ccc(S(C)(=O)=O)cc2)cc1OC target_entity="HOP-92 NSCLC" class_label=inactive
molecule=CCCCCCCCCCCCCCCCCC(=O)Nc1ccc(OC)cc1 target_entity="HOP-92 NSCLC" class_label=inactive
molecule=COc1ccc(/C=C/c2nc3ccccc3n3c(-c4cccc([N+](=O)[O-])c4)nnc23)cc1 target_entity="HOP-92 NSCLC" class_label=active
molecule=Clc1ccc(-c2nc3c4c(-c5ccccc5)c(-c5ccccc5)n(Cc5ccccc5)c4ncn3n2)cc1 target_entity="HOP-92 NSCLC" class_label=active
molecule=O=C(N/N=C/c1c[nH]c2ccccc12)Nc1ccccc1Cl target_entity="HOP-92 NSCLC" class_label=active
molecule=O=C(Nc1ccc(-c2ccc3c(c2)NC(=O)/C3=C\c2ccc[nH]2)cc1)Nc1ccc(Cl)c(Cl)c1 target_entity="HOP-92 NSCLC" class_label=inactive
molecule=CS(=O)(=O)Nc1cc(-c2ccc3ncnc(Nc4ccc(OCc5cccnc5)c(Cl)c4)c3c2)cnc1Cl target_entity="HOP-92 NSCLC" class_label=active
molecule=O=C(N/N=C/c1ccsc1)c1[nH]c2ccc(Br)cc2c1-c1ccccc1 target_entity="HOP-92 NSCLC" class_label=active
molecule=O=C1Nc2cc(-c3ccc(NS(=O)(=O)c4ccc([N+](=O)[O-])cc4)cc3)ccc2/C1=C/c1ccc[nH]1 target_entity="HOP-92 NSCLC" class_label=active
molecule=Nc1nnc(-c2cncc(Br)c2)c(-c2c[nH]c3ccc(Cl)cc23)n1 target_entity="HOP-92 NSCLC" class_label=inactive
molecule=O=C(Cc1c(-c2ccccc2[N+](=O)[O-])n(-c2ncnc3c2c(-c2ccccc2)c(-c2ccccc2)n3Cc2ccccc2)[nH]c1=O)c1ccc(Cl)c(Cl)c1 target_entity="HOP-92 NSCLC" class_label=active
molecule=COc1ccc2[nH]cc(-c3cc4nc(-c5cn(C)c6ncc(Br)cc56)cc(N)n4n3)c2c1 target_entity="HOP-92 NSCLC" class_label=active
molecule="Cc1nc(Nc2ccccn2)sc1C1=NNC(c2ccccc2F)C1 (stereo unspecified)" target_entity="HOP-92 NSCLC" class_label=inactive
molecule=COc1ccc(N=Nc2c(N)nn3c(N)c(C#N)c(-c4ccccc4)nc23)cc1 target_entity="HOP-92 NSCLC" class_label=active
molecule="Cc1cc(C(NC(=O)CCCCCNc2cccc3c2C(=O)N(C2CCC(=O)CC2=O)C3=O)c2cccc(N(C)C)c2)c(O)c2ncccc12 (stereo unspecified)" target_entity="HOP-92 NSCLC" class_label=active
molecule=O=[N+]([O-])c1cccc(-c2nnc3c(/C=C/c4ccc(F)cc4)nc4ccccc4n23)c1 target_entity="HOP-92 NSCLC" class_label=inactive
molecule=COc1ccc2c(c1)N=c1c-2cc2c(O)[nH]c(=S)n2c1=O target_entity="HOP-92 NSCLC" class_label=inactive
molecule=FC(F)(F)c1cc2c(Cl)ncnc2n1CCN1CCOCC1 target_entity="HOP-92 NSCLC" class_label=inactive
molecule=CC[C@]12C=CCN3CC[C@@]4(c5ccc(OC)cc5N(C)[C@H]4[C@@](O)(C(=O)OC)[C@@H]1OC(=O)CCCC[P+](c1ccc(F)cc1)(c1ccc(F)cc1)c1ccc(F)cc1)[C@@H]32 target_entity="HOP-92 NSCLC" class_label=active
molecule=COc1ccc(C(=O)C[n+]2cccc3c4ccccc4ccc32)cc1 target_entity="HOP-92 NSCLC" class_label=inactive
molecule=N#Cc1c(-c2ccc(F)cc2)nc(SCc2ccccc2)nc1N1CCNCC1 target_entity="HOP-92 NSCLC" class_label=active
molecule=O=C1Nc2ccccc2/C1=C/C(=O)c1cc2ccccc2oc1=O target_entity="HOP-92 NSCLC" class_label=inactive
